Counter-ions that a name gives are not always drawn.
endpoint label: melting point

Below, 8 compounds whose answers are already recorded.
COc1ccccc1N1CCN(CCNC(=O)CCN2CC=C(c3c[nH]c4cc(F)ccc34)CC2)CC1 :: 175 to 177 °C
COc1ccccc1N1CCN(CCCCCN2CC=C(c3c[nH]c4cc(Cl)ccc34)CC2)CC1 :: 126 to 128 °C
COc1ccccc1N1CCN(CCNCCCN2CC=C(c3c[nH]c4cc(F)ccc34)CC2)CC1 :: 82 to 84 °C
COc1ccccc1N1CCN(CCCCCN2CC=C(c3c[nH]c4cc(F)ccc34)CC2)CC1 :: 69 to 71 °C
COc1ccccc1N1CCN(CCNCCN2CC=C(c3c[nH]c4cc(Cl)ccc34)CC2)CC1 :: 78 to 80 °C
COc1ccccc1N1CCN(CCCCCN2CCC(c3c[nH]c4cc(Cl)ccc34)CC2)CC1 (as salt: hydrochloride) [Example 20, trihydrochloride] :: 139 to 141 °C
COc1ccccc1N1CCN(CCCCCN2CCC(c3c[nH]c4cc(F)ccc34)CC2)CC1 (as salt: hydrochloride) [Example 19, trihydrochloride] :: 113 to 115 °C
COc1ccccc1N1CCN(CCNCCCN2CCC(c3c[nH]c4cc(Cl)ccc34)CC2)CC1 (as salt: hydrochloride) :: 91 to 95 °C

Record melting point per entry; entries follow.
1. COc1ccccc1N1CCN(CCCCN2CC=C(c3c[nH]c4cc(Cl)ccc34)CC2)CC1
2. COc1ccccc1N1CCN(CCCCCCN2CCC(c3c[nH]c4cc(F)ccc34)CC2)CC1 (as salt: hydrochloride) [Example 22, trihydrochloride]
3. COc1ccccc1N1CCN(CCCCCCN2CCC(c3c[nH]c4cc(Cl)ccc34)CC2)CC1 (as salt: hydrochloride) [Example 21, trihydrochloride]

# output
1: 131 to 133 °C; 2: 145 to 147 °C; 3: 185 to 187 °C
